molecular target: Glutamate receptor ionotropic, NMDA 2C (Rattus norvegicus, UniProt Q00961); assay: Binding affinity against phencyclidine receptor was determined by the displacement of [3H]TCP of whole rat brain minus cerebellum.
Sequence (Q00961 whole entry): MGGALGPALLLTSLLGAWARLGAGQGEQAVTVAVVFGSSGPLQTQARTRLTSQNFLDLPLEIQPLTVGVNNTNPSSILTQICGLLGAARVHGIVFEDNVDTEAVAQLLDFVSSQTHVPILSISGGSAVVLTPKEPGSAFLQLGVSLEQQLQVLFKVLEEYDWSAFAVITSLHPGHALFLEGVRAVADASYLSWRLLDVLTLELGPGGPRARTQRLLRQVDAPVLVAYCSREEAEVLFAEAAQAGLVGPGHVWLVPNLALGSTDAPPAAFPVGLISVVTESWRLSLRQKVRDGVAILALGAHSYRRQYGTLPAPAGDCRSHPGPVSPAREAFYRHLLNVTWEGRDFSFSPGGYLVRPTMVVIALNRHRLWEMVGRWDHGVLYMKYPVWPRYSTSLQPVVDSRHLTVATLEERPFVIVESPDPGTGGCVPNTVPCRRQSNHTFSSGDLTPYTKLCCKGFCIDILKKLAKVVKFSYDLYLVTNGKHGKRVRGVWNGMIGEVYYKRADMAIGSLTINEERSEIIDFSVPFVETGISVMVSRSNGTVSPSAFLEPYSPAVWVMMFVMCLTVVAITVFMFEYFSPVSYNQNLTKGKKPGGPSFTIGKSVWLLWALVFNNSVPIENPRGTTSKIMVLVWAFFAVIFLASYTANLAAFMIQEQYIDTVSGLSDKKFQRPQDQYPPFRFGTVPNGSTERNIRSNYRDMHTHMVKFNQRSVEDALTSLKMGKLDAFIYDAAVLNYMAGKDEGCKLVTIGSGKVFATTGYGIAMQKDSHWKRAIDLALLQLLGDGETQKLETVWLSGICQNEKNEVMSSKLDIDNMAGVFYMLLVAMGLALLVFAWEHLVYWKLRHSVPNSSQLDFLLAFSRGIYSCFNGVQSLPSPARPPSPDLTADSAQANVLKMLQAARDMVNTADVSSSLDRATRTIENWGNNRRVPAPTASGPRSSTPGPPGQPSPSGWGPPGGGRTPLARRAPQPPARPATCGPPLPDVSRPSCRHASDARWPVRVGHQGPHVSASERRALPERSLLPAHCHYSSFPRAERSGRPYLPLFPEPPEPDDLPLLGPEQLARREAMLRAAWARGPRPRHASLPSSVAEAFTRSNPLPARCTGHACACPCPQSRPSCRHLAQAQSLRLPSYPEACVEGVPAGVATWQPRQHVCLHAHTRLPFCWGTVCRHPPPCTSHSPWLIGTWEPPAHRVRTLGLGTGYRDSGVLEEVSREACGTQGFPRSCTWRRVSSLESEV
pKi: −log10 of the molar value.
Rule: pKi of 6 or more gives fulfilled; anything lower gives not fulfilled.

// below: answered compounds
>>> group("CC1CCCN(C2(c3ccccc3)CCCCC2)C1 (stereo in doubt; (-))")
"not fulfilled"
>>> group("CC1CCCN(C2(c3ccccc3)CCCCC2)C1 (stereo in doubt; (+))")
"fulfilled"
>>> group("C[C@@H]1CCC[C@@](c2ccccc2)(N2CCCCC2)C1")
"not fulfilled"

Is the recorded value of pKi equal to or greater than 6 for this compound? `C[C@H]1CCC[C@@](c2ccccc2)(N2CCCCC2)C1`
not fulfilled

Is the recorded value of pKi equal to or greater than 6 for this compound? c1ccc(C2(N3CCCCC3)CCCCC2)cc1 [PHENCYCLIDINE]
fulfilled

Is the recorded value of pKi equal to or greater than 6 for this compound? `C[C@H]1CCC[C@](c2ccccc2)(N2CCCCC2)C1`
fulfilled
